Recorded MIC50, one value per entry.
System: vancomycin-resistant Enterococcus (VRE)
Assay notes: agar dilution method, inhibitory effect on VRE
Assay type: cell-based
Study conditions: Enterococcus, read-out: Minimum inhibitory concentration (MIC50, μg/ml) VRE
Use µg/mL as the unit, but write only the number.

In the examples that follow, each entry is paired with its recorded MIC50.
{"columns": ["Compound", "MIC50 [µg/mL]"],
 "data": [
  ["CCC(O)[C@H]1CN(c2ccc(-c3ccc(-c4nnn(CC)n4)nc3)c(F)c2)C(=O)O1.O=P(O)(O)O (stereo partly drawn)", 0.2],
  ["CCCn1nnc(-c2ccc(-c3ccc(N4C[C@H](CO)OC4=O)cc3F)cn2)n1.O=P(O)(O)O", 1.2]
]}

Below: the item to evaluate.
Exam item: Report measured MIC50 on vancomycin-resistant Enterococcus (VRE); entry: CCn1nnc(-c2ccc(-c3ccc(N4C[C@H](C(O)F)OC4=O)cc3F)cn2)n1.O=P(O)(O)O (stereo partly drawn)
Marked response: 0.4

* * *

Recorded Minimum inhibitory concentration (MIC50, μg/ml) MRSA, one value per entry.
System: methicillin-resistant Staphylococcus aureus (MRSA)
Assay notes: agar dilution method, inhibitory effect on MRSA
Type: cell-based
Use µg/mL as the unit, but write only the number.

In the examples that follow, each entry is paired with its recorded Minimum inhibitory concentration (MIC50, μg/ml) MRSA.
{"columns": ["Molecule", "Unit text", "Recorded result"],
 "data": [
  ["O=C1O[C@H](C(OP(=O)(O)O)C(F)(F)F)CN1c1ccc(-c2ccc(-c3nnn(C4CC4)n3)nc2)c(F)c1 (some centres unmarked)", "µg/mL", 0.9],
  ["CCn1nnc(-c2ccc(-c3ccc(N4C[C@@H](C(OP(=O)(O)O)C(F)(F)F)OC4=O)cc3F)cn2)n1 (some centres unmarked)", "µg/mL", 0.8],
  ["O=C1O[C@@H](C(O)C(F)F)CN1c1ccc(-c2ccc(-c3nnn(C4CC4)n3)nc2)c(F)c1.O=P(O)(O)O (some centres unmarked)", "µg/mL", 0.6],
  ["C=Cn1nnc(-c2ccc(-c3ccc(N4C[C@H](C(O)C(F)(F)F)OC4=O)cc3F)cn2)n1.O=P(O)(O)O (some centres unmarked)", "µg/mL", 0.7],
  ["C=Cn1nnc(-c2ccc(-c3ccc(N4C[C@H](C(OP(=O)(O)O)C(F)F)OC4=O)cc3F)cn2)n1 (some centres unmarked)", "µg/mL", 0.8],
  ["C=Cn1nnc(-c2ccc(-c3ccc(N4C[C@@H](C(OP(=O)(O)O)C(F)(F)F)OC4=O)cc3F)cn2)n1 (some centres unmarked)", "µg/mL", 0.2]
]}

Exam item: Tell me measured Minimum inhibitory concentration (MIC50, μg/ml) MRSA for CCCn1nnc(-c2ccc(-c3ccc(N4C[C@H](C(O)C(F)(F)F)OC4=O)cc3F)cn2)n1.O=P(O)(O)O (some centres unmarked) please.
Marked response: 0.7

Exam item: Tell me measured Minimum inhibitory concentration (MIC50, μg/ml) MRSA for CCC(OP(=O)(O)O)[C@H]1CN(c2ccc(-c3ccc(-c4nnn(C5CC5)n4)nc3)c(F)c2)C(=O)O1 (some centres unmarked) please.
Marked response: 0.5

Exam item: Tell me measured Minimum inhibitory concentration (MIC50, μg/ml) MRSA for Cn1nnc(-c2ccc(-c3ccc(N4C[C@@H](C(OP(=O)(O)O)C(F)F)OC4=O)cc3F)cn2)n1 (some centres unmarked) please.
Marked response: 0.5

Exam item: Tell me measured Minimum inhibitory concentration (MIC50, μg/ml) MRSA for Cn1nnc(-c2ccc(-c3ccc(N4C[C@H](C(O)C(F)F)OC4=O)cc3F)cn2)n1.O=P(O)(O)O (some centres unmarked) please.
Marked response: 0.6

Exam item: Tell me measured Minimum inhibitory concentration (MIC50, μg/ml) MRSA for Cn1nnc(-c2ccc(-c3ccc(N4C[C@H](C(O)C(F)(F)F)OC4=O)cc3F)cn2)n1.O=P(O)(O)O (some centres unmarked) please.
Marked response: 0.7

Exam item: Tell me measured Minimum inhibitory concentration (MIC50, μg/ml) MRSA for O=C1O[C@@H](C(O)F)CN1c1ccc(-c2ccc(-c3nnn(C4CC4)n3)nc2)c(F)c1.O=P(O)(O)O (some centres unmarked) please.
Marked response: 0.4

Exam item: Tell me measured Minimum inhibitory concentration (MIC50, μg/ml) MRSA for CCn1nnc(-c2ccc(-c3ccc(N4C[C@@H](C(O)C(F)F)OC4=O)cc3F)cn2)n1.O=P(O)(O)O (some centres unmarked) please.
Marked response: 0.5

Exam item: Tell me measured Minimum inhibitory concentration (MIC50, μg/ml) MRSA for O=C1O[C@@H](C(O)C(F)(F)F)CN1c1ccc(-c2ccc(-c3nnn(C4CC4)n3)nc2)c(F)c1.O=P(O)(O)O (some centres unmarked) please.
Marked response: 0.3
